Each entry below carries its recorded pIC50.
- Tested on: HaCaT cells
- experiment-notes: MTT assay on HaCaT cells
- Format: cell-based
- test-parameters: Homo sapiens; HaCaT cells, 72 h, MTT; read-out: IC50
pIC50: −log10 of the molar value.
measured-endpoint: pIC50

compound	numeric-result
CCC(=O)COc1cc(N)ccc1N [Compound N11, 1-(2,5-diaminophenoxy)butan-2-one]	3.71
COC(COc1cc(N)ccc1N)OC [Compound N1]	3.29
CCOCOc1cc(N)ccc1N [Compound N3, 2-(ethoxymethoxy)benzene-1,4-diamine]	3.34
CNCCOc1cc(N)ccc1N [Compound N13]	3.92
Nc1ccc(N)c(OCCO)c1 [Compound N9, 2-(2,5-diaminophenoxy)ethan-1-ol]	3.57
C=C(C)Oc1cc(N)ccc1N [Compound N12, 2-(prop-1-en-2-yloxy)benzene-1,4-diamine]	3.89
COCOc1cc(N)ccc1N [Compound N2, 2-(methoxymethoxy)benzene-1,4-diamine]	3.53
COCCOCCOc1cc(N)ccc1N [Compound N5]	4.36
Nc1ccc(N)c(OCOCO)c1 [Compound N8, ((2,5-diaminophenoxy)methoxy)methanol]	3.66
CC(O)COc1cc(N)ccc1N (centres unmarked) [Compound N10, 1-(2,5-diaminophenoxy)propan-2-ol]	3.55
COCCOc1cc(N)ccc1N [Compound N7, 2-(2-methoxyethoxy)benzene-1,4-diamine]	4.47

----------
- experiment-notes: Skin permeation study, Franz diffusion cell
- Type: in vitro ADME, porcine
- test-parameters: mass balance, 8 h
Each entry below carries its recorded Recovered on parafilm and in washes.

molecule	Recovered on parafilm and in washes
COCOc1cc(N)ccc1N [Compound N2, 2-(methoxymethoxy)benzene-1,4-diamine]	0.004 % of applied compound dose
COCCOCCOc1cc(N)ccc1N [Compound N5]	0.009 % of applied compound dose
CC(O)COc1cc(N)ccc1N (stereo not shown) [Compound N10, 1-(2,5-diaminophenoxy)propan-2-ol]	0.006 % of applied compound dose
CCOCOc1cc(N)ccc1N [Compound N3, 2-(ethoxymethoxy)benzene-1,4-diamine]	0.005 % of applied compound dose

----------
Each entry below carries its recorded Recovered in donor compartment.
- experiment-notes: Skin permeation study, Franz diffusion cell
- Type: in vitro ADME, porcine
- test-parameters: mass balance, 8 h
measured-endpoint: Recovered in donor compartment

compound	measured-endpoint	result
CCOCOc1cc(N)ccc1N [Compound N3, 2-(ethoxymethoxy)benzene-1,4-diamine]	Recovered in donor compartment	97.2 % of applied compound dose
COCOc1cc(N)ccc1N [Compound N2, 2-(methoxymethoxy)benzene-1,4-diamine]	Recovered in donor compartment	98.2 % of applied compound dose
Nc1ccc(N)c(OCOCO)c1 [Compound N8, ((2,5-diaminophenoxy)methoxy)methanol]	Recovered in donor compartment	95.0 % of applied compound dose
COCCOc1cc(N)ccc1N [Compound N7, 2-(2-methoxyethoxy)benzene-1,4-diamine]	Recovered in donor compartment	97.5 % of applied compound dose
C=C(C)Oc1cc(N)ccc1N [Compound N12, 2-(prop-1-en-2-yloxy)benzene-1,4-diamine]	Recovered in donor compartment	96.0 % of applied compound dose
CCC(=O)COc1cc(N)ccc1N [Compound N11, 1-(2,5-diaminophenoxy)butan-2-one]	Recovered in donor compartment	93.7 % of applied compound dose
COCCOCCOc1cc(N)ccc1N [Compound N5]	Recovered in donor compartment	95.3 % of applied compound dose
COC(COc1cc(N)ccc1N)OC [Compound N1]	Recovered in donor compartment	96.7 % of applied compound dose
CC(O)COc1cc(N)ccc1N (stereo not shown) [Compound N10, 1-(2,5-diaminophenoxy)propan-2-ol]	Recovered in donor compartment	95.0 % of applied compound dose
CNCCOc1cc(N)ccc1N [Compound N13]	Recovered in donor compartment	93.0 % of applied compound dose
Nc1ccc(N)c(OCC2CO2)c1 (stereo not shown) [Compound N4]	Recovered in donor compartment	98.9 % of applied compound dose
N#CCOc1cc(N)ccc1N [Compound N6, 2-(2,5-diaminophenoxy)acetonitrile]	Recovered in donor compartment	99.1 % of applied compound dose
Nc1ccc(N)c(OCCO)c1 [Compound N9, 2-(2,5-diaminophenoxy)ethan-1-ol]	Recovered in donor compartment	94.5 % of applied compound dose
